Biological target: CypF (Homo sapiens (Human), UniProt P30405)
Sequence (P30405 30-207): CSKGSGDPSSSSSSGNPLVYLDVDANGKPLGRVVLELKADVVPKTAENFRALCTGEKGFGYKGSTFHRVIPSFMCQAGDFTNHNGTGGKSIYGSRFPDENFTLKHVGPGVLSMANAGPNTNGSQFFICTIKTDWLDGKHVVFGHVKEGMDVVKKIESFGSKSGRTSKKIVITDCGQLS
Assay: Inhibitor binding to cyclophilin proteins by SPR, CypF
Conditions: 1:1 binding model
Method: Method 1: Measuring Inhibitor Binding to Cyclophilin Proteins Binding of inhibitors to expressed cyclophilins was determined using surface plasmon resonance (SPR) experiments. Briefly, avi-tagged cyclophilin proteins with mono-biotinylation were immobilized onto a Biotin CAPture chip (GE Healthcare, cat. #28920234). […] Data was analyzed using Biacore T200 Evaluation Software Version 1.0 and a 1:1 binding model was applied to fit the data to obtain kon, koff, and KD.
Starred links: 1 amine or outer side, 2 acyl side, 3 side chain; linkers in the order of their positions; H or OH if unused. Non-standard residues stand in square brackets, D forms with d. Residues, ends and D or L forms follow the SMILES beside them. X42 = C[C@H](CCCOC(=O)N(C)C1CCN(C)CC1)[C@@H](C(=O)[*:2])N(C)[*:1]; X76 = CO[C@H](CN1CCOCC1)[C@@H](C(=O)[*:2])N(C)[*:1]; MeBmt = C/C=C/C[C@@H](C)[C@@H](O)[C@H](NC)C(=O)O; NMeL = CN[C@@H](CC(C)C)C(=O)O; NMeV = CN[C@H](C(=O)O)C(C)C; dNMeA = CN[C@H](C)C(=O)O; Abu = CC[C@H](N)C(=O)O
Readout type: CypF Kd (nM)
Report only the number, with the unit nM understood.

C/C=C/C[C@@H](C)[C@@H](O)[C@H]1C(=O)N[C@@H](CC)C(=O)N(C)[C@H](C)C(=O)N(C)[C@@H]([C@@H](CN2CCOCC2)OC)C(=O)N[C@@H](C(C)C)C(=O)N(C)[C@@H](CC(C)C)C(=O)N[C@@H](C)C(=O)N[C@H](C)C(=O)N(C)[C@@H](CC(C)C)C(=O)N(C)[C@@H](CC(C)C)C(=O)N(C)[C@@H](C(C)C)C(=O)N1C [Compound 2.21.1] (cyclo(A[dA][NMeL][NMeL][NMeV][MeBmt][Abu][dNMeA][X76]V[NMeL])) | 1.2

Find the recorded CypF Kd belonging to C/C=C/C[C@@H](C)[C@@H](O)[C@H]1C(=O)N[C@@H](CC)C(=O)N(C)[C@H](C)C(=O)N(C)[C@@H]([C@H](C)CCCOC(=O)N(C)C2CCN(C)CC2)C(=O)N[C@@H](C(C)C)C(=O)N(C)[C@@H](CC(C)C)C(=O)N[C@@H](C)C(=O)N[C@H](C)C(=O)N(C)[C@@H](CC(C)C)C(=O)N(C)[C@@H](CC(C)C)C(=O)N(C)[C@@H](C(C)C)C(=O)N1C [Compound 2.19.9] (cyclo(A[dA][NMeL][NMeL][NMeV][MeBmt][Abu][dNMeA][X42]V[NMeL])) and report it.
0.4
